// data source = paper PMC12735945

system: B16F10 (mouse skin melanoma) cells; assay type: cell-based; conditions: 72 h
Starred links: 1 amine or outer side, 2 acyl side, 3 side chain; linkers in the order of their positions; H or OH if unused. Positions of bridges follow the written chain, without caps; N, C: chain ends. Non-standard residues stand in square brackets, D forms with d. Residues, ends and D or L forms follow the SMILES beside them. *: point of attachment. X1 = CC(C)CCCCCCCCC[C@H](CC(=O)[*:1])O[*:2]; Stearoyl = CCCCCCCCCCCCCCCCCC(=O)*; Boc = CC(C)(C)OC(=O)*; Nlys = NCCCCNCC(=O)O
Entries and their pIC50 values follow.
In simple prose, pIC50 is minus the logarithm base ten of a concentration in moles per litre.

INSERT INTO measurements (compound, study_target, observable, test_value) VALUES
  ('CCCCCCCCCCCCCC(=O)N(CCNC(=O)OC(C)(C)C)CC(=O)NCC(=O)N(CCNC(=O)OC(C)(C)C)CC(=O)NCC(=O)OC', 'B16F10 (mouse skin melanoma) cells', 'pIC50', 5.24),
  ('CC(C)CCCCCCCCC[C@@H]1CC(=O)N[C@@H](CCC(=O)O)C(=O)N[C@@H](CC(C)C)C(=O)N[C@H](CC(C)C)C(=O)N[C@@H](C(C)C)C(=O)N[C@@H](CC(=O)O)C(=O)N[C@H](CC(C)C)C(=O)N[C@@H](CC(C)C)C(=O)O1 [Surfactin, surfactin, reference compound] (EL[dL]VD[dL]L; linker N-C via X1 (inferred))', 'B16F10 (mouse skin melanoma) cells', 'pIC50', 4.30),
  ('CCCCCCCCCCCCCCCCCCCC(=O)N(CCCCN=[N+]=[N-])CC(=O)NCC(=O)N(CCCCN=[N+]=[N-])CC(=O)NCC(=O)OC', 'B16F10 (mouse skin melanoma) cells', 'pIC50', 4.94),
  ('CCCCCCCCCCCCCCCC(=O)N(CCc1ccc(O)cc1)CC(=O)NCC(=O)OC', 'B16F10 (mouse skin melanoma) cells', 'pIC50', 5.10),
  ('CCCCCCCCCCCCCCCCCC(=O)N(CCCCNC(=O)OC(C)(C)C)CC(=O)NCC(=O)N(CCCCNC(=O)OC(C)(C)C)CC(=O)NCC(=O)OC [Compound 46] (Stearoyl-[Nlys](Boc)G[Nlys](Boc)G-OMe)', 'B16F10 (mouse skin melanoma) cells', 'pIC50', 5.09);

# next compound below
Form entry - test system: B16F10 (mouse skin melanoma) cells; read-out: pIC50; compound: CCCCCCCCCCCCCCCCCCC(=O)N(CCCCN=[N+]=[N-])CC(=O)NCC(=O)N(CCCCN=[N+]=[N-])CC(=O)NCC(=O)OC 5.12
